Tested on: COLO 205 colon
Experiment: NCI tumour cell line growth inhibition, 48 h
# TGI per entry

compound	TGI
CC(O)c1c2c(cc3c1CC1(C3)Cc3cc4c(c(C(C)O)c3C1)CCC4)CCC2 (stereo not given)	28.6 µM
O=C1NCC2(CCNCC2)N1c1ccccc1	> 100 µM
O=C(Nc1ccncc1)C(=O)c1cn(S(=O)(=O)c2ccc(Br)cc2)c2ccccc12	> 100 µM
O=C(O)C(CS)NCc1c2ccccc2[n+]([O-])c2ccccc12 (stereo not given)	> 100 µM
O=[N+]([O-])c1cccc(N=C2c3ccccc3CN2c2cccc([N+](=O)[O-])c2)c1	> 100 µM
